- targetEntity: rat mGluR5 receptors (Rattus norvegicus)
pKi: −log10 of the molar value.
measure: pKi

q: Kindly indicate its recorded pKi. Item: COc1ccc2ncc(S(=O)(=O)c3ccccc3)c(N3CCC(C)CC3)c2c1
a: < 6.30

q: Kindly indicate its recorded pKi. Item: Cc1ccc(S(=O)(=O)c2cnc3cc(Cl)ccc3c2N2CCC(C)CC2)cc1C
a: > 6.70

q: Kindly indicate its recorded pKi. Item: Cc1ccc2ncc(S(=O)(=O)c3ccc(Cl)cc3)c(N3CCC(C)CC3)c2c1
a: 6.30 to 6.70

q: Kindly indicate its recorded pKi. Item: CCOc1ccc2ncc(S(=O)(=O)c3ccc(C)cc3)c(N3CCC(C)CC3)c2c1
a: < 6.30

q: Kindly indicate its recorded pKi. Item: CC1CCN(c2c(S(=O)(=O)c3cc(Cl)cc(Cl)c3)cnc3ccc(F)cc23)CC1
a: 6.30 to 6.70

q: Kindly indicate its recorded pKi. Item: N#Cc1cccc(S(=O)(=O)c2cnc3cc(F)ccc3c2N2CCOCC2)c1
a: 6.30 to 6.70

q: Kindly indicate its recorded pKi. Item: CCN(CC)c1c(S(=O)(=O)c2ccc(Cl)cc2)cnc2cc3c(cc12)OCCO3
a: < 6.30

q: Kindly indicate its recorded pKi. Item: Cc1ccc(S(=O)(=O)c2cnc3ccc(F)cc3c2N2CCC(C)CC2)cc1C
a: > 6.70

q: Kindly indicate its recorded pKi. Item: O=S(=O)(c1ccccc1)c1cnc2cc3c(cc2c1N1CCCC1)OCCO3
a: < 6.30

q: Kindly indicate its recorded pKi. Item: Cc1ccc2ncc(S(=O)(=O)c3ccc(F)c(F)c3)c(N3CCOCC3)c2c1
a: < 6.30

q: Kindly indicate its recorded pKi. Item: COc1cc2ncc(S(=O)(=O)c3ccccc3)c(N3CCOCC3)c2cc1OC
a: < 6.30

* * *

Ki: recorded values
- targetEntity: rat mGluR5 receptors (Rattus norvegicus)

Examples with their reported Ki follow.
| lineNotation | targetEntity | result |
| --- | --- | --- |
| O=S(=O)(c1cccc(Cl)c1)c1cnc2cc(Cl)ccc2c1N1CCOCC1 | rat mGluR5 receptors (Rattus norvegicus) | < 200 nM |
| Cc1ccc2ncc(S(=O)(=O)c3ccc(Cl)cc3)c(N3CCOCC3)c2c1 | rat mGluR5 receptors (Rattus norvegicus) | > 500 nM |
| Cc1ccc2ncc(S(=O)(=O)c3ccc(C#N)cc3)c(N3CCC(C)CC3)c2c1 | rat mGluR5 receptors (Rattus norvegicus) | 200 to 500 nM |

Could you now look at the following molecule, please?
q: State measured Ki of the molecule CCc1ccc2ncc(S(=O)(=O)c3ccccc3)c(N3CCN(CC)CC3)c2c1 with rat mGluR5 receptors (Rattus norvegicus).
a: > 500 nM

* * *

Ki: recorded values
- targetEntity: rat mGluR5 receptors (Rattus norvegicus, UniProt P31424)
- Sequence (P31424 21-1203): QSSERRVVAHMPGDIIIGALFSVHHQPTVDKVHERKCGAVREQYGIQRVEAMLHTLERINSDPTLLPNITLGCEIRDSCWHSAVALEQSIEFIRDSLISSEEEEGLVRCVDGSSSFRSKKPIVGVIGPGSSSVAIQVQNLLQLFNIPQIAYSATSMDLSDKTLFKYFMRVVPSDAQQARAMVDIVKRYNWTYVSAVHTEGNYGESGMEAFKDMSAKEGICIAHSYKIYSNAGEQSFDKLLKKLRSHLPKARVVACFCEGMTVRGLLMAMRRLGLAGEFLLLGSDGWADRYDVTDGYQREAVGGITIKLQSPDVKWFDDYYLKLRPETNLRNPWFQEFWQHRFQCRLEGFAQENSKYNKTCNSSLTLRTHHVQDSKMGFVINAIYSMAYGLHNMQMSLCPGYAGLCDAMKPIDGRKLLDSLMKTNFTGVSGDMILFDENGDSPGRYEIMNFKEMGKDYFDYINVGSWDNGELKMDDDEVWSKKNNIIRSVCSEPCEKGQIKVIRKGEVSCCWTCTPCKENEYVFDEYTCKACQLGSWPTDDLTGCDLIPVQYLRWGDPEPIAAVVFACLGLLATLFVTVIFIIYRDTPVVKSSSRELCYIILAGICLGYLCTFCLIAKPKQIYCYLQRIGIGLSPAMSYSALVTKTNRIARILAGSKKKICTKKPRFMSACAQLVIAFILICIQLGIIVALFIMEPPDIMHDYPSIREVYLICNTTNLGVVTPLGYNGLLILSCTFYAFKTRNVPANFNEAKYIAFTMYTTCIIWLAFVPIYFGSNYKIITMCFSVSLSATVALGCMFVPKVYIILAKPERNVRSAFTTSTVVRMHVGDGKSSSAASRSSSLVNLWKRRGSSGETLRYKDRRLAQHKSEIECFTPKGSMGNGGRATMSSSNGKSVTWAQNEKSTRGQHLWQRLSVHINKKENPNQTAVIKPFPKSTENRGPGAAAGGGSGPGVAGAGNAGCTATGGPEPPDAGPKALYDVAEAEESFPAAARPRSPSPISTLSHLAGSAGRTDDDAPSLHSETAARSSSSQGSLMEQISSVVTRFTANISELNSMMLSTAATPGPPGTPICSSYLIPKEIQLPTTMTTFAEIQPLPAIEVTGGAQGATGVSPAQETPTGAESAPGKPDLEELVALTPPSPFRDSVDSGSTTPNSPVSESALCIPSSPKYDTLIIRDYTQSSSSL

Examples with their reported Ki follow.
| compound | targetEntity | result |
| --- | --- | --- |
| CCOc1ccc2ncc(S(=O)(=O)c3ccc(OC)cc3)c(N3CCC(C)CC3)c2c1 [Compound 102] | rat mGluR5 receptors (Rattus norvegicus, UniProt P31424) | > 0.5 µM |
| Cc1cc(C)cc(S(=O)(=O)c2cnc3ccc(F)cc3c2N2CCC(C)CC2)c1 [Compound 151] | rat mGluR5 receptors (Rattus norvegicus, UniProt P31424) | < 0.2 µM |
| CC1CCN(c2c(S(=O)(=O)c3cc(Cl)cc(Cl)c3)cnc3ccc(Cl)cc23)CC1 [Compound 208] | rat mGluR5 receptors (Rattus norvegicus, UniProt P31424) | < 0.2 µM |

q: State measured Ki of the compound CCOC(=O)N1CCN(c2c(S(=O)(=O)c3ccc(C)cc3)cnc3ccc(C)cc23)CC1 [Compound 132] with rat mGluR5 receptors (Rattus norvegicus, UniProt P31424).
a: > 0.5 µM

q: State measured Ki of the compound CC1CCN(c2c(S(=O)(=O)c3ccccc3)cnc3cc4c(cc23)OCCO4)CC1 [Compound 48] with rat mGluR5 receptors (Rattus norvegicus, UniProt P31424).
a: < 0.2 µM

q: State measured Ki of the compound CC1CCN(c2c(S(=O)(=O)c3cccc(C#N)c3)cnc3ccc(F)cc23)CC1 [Compound 140] with rat mGluR5 receptors (Rattus norvegicus, UniProt P31424).
a: < 0.2 µM

q: State measured Ki of the compound COc1ccc2ncc(S(=O)(=O)c3ccc(C)c(C)c3)c(N3CCC(C)CC3)c2c1 [Compound 250] with rat mGluR5 receptors (Rattus norvegicus, UniProt P31424).
a: 0.2 to 0.5 µM

q: State measured Ki of the compound Cc1ccc(S(=O)(=O)c2cnc3ccccc3c2N2CCN(Cc3ccccc3)CC2)cc1 [Compound 80] with rat mGluR5 receptors (Rattus norvegicus, UniProt P31424).
a: > 0.5 µM
